All values here come from patent US8628771B2.

- System under test: hCA IX (Homo sapiens, UniProt Q16790)
- Experiment notes: CA CO2 hydrase activity assay, tumor-associated isozyme hCA IX
- Condition context: read-out: KI hCA IX; Table 2; catalytic domain of the human, cloned isozyme
Quick rule for you: Ki under 100 nM gets 1 (yes), anything else gets 0 (no).

INSERT INTO assay_data (smiles_notation, assigned_label) VALUES
  ('Cc1cc(C)[n+](-c2ccc(S(N)(=O)=O)cc2)c(C)c1C', '1 (yes)'),
  ('CCc1cc(-c2ccccc2)cc(-c2ccccc2)[n+]1CCc1ccc(S(N)(=O)=O)cc1', '1 (yes)'),
  ('CCc1cc(-c2ccccc2)cc(-c2ccccc2)[n+]1Cc1ccc(S(N)(=O)=O)cc1.[O-][Cl+3]([O-])([O-])[O-]', '1 (yes)'),
  ('Cc1cc(-c2ccccc2)cc(-c2ccccc2)[n+]1Cc1ccc(S(N)(=O)=O)cc1', '1 (yes)'),
  ('CC(C)c1cc(-c2ccccc2)cc(C(C)C)[n+]1-c1ccc(S(N)(=O)=O)cc1', '0 (no)'),
  ('CC(C)c1cc(-c2ccccc2)cc(-c2ccccc2)[n+]1Cc1ccc(S(N)(=O)=O)cc1', '1 (yes)'),
  ('NS(=O)(=O)c1ccc(C[n+]2c(-c3ccccc3)cc(-c3ccccc3)cc2-c2ccccc2)cc1', '0 (no)'),
  ('CCCCc1cc(-c2ccccc2)cc(-c2ccccc2)[n+]1Cc1ccc(S(N)(=O)=O)cc1.[O-][Cl+3]([O-])([O-])[O-]', '0 (no)'),
  ('NS(=O)(=O)c1ccc(CC[n+]2c(-c3ccccc3)cc(-c3ccccc3)cc2-c2ccccc2)cc1', '1 (yes)');

---

Catalogue of compounds with associated Ki
- System under test: hCA IX (Homo sapiens)
- Experiment notes: CA CO2 hydrase activity assay, tumor-associated isozyme hCA IX
- Condition context: read-out: KI hCA IX; Table 3; catalytic domain of the human, cloned isozyme, CO2 hydrase assay method
Parameter measured: Ki

INSERT INTO results (compound, parameter_measured, test_result) VALUES
  ('NS(=O)(=O)c1nnc(NS(=O)(=O)c2ccc(-[n+]3c(-c4ccccc4)cc(-c4ccccc4)cc3-c3ccccc3)cc2)s1 [Compound 87]', 'Ki', '12 nM'),
  ('NS(=O)(=O)c1nnc(NS(=O)(=O)c2ccc(-[n+]3c(-c4ccccc4)cccc3-c3ccccc3)cc2)s1 [Compound 88]', 'Ki', '16 nM'),
  ('Cc1cc(-c2ccccc2)[n+](-c2ccc(S(=O)(=O)Nc3nnc(S(N)(=O)=O)s3)cc2)c(-c2ccccc2)c1 [Compound 86]', 'Ki', '12 nM'),
  ('Cc1c(-c2ccccc2)cc(C)[n+](-c2ccc(S(=O)(=O)Nc3nnc(S(N)(=O)=O)s3)cc2)c1C [Compound 90]', 'Ki', '15 nM'),
  ('Cc1cc(C(C)C)[n+](-c2ccc(S(=O)(=O)Nc3nnc(S(N)(=O)=O)s3)cc2)c(C(C)C)c1 [Compound 73]', 'Ki', '16 nM');

---

- System under test: hCA I (Homo sapiens)
- Construct: made in house; host or cells: Escherichia coli BL21 (DE3)
- Sequence (P00915 whole entry): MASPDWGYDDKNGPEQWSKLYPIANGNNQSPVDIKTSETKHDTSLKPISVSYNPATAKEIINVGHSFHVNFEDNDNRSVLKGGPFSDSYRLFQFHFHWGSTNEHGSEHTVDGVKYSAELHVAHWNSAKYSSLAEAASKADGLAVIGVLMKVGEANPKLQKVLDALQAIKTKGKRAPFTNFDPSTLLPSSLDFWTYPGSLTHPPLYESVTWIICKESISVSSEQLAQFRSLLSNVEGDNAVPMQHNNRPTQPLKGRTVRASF
- Experiment notes: CA esterase activity assay, isozyme hCA I
- Assay type: biochemical
- Condition context: Table 2; human (cloned) isozymes; read-out: KI hCA I
Parameter measured: Ki (µM)

INSERT INTO assay_data (smiles_notation, system_under_test, test_result) VALUES
  ('CCCCc1cc(-c2ccccc2)cc(-c2ccccc2)[n+]1Cc1ccc(S(N)(=O)=O)cc1.[O-][Cl+3]([O-])([O-])[O-]', 'hCA I (Homo sapiens)', 300),
  ('CC(C)c1cc(-c2ccccc2)cc(C(C)C)[n+]1CCc1ccc(S(N)(=O)=O)cc1', 'hCA I (Homo sapiens)', 6),
  ('Cc1cc(-c2ccccc2)cc(C)[n+]1CCc1ccc(S(N)(=O)=O)cc1', 'hCA I (Homo sapiens)', 1),
  ('Cc1cc(C(C)C)[n+](Cc2ccc(S(N)(=O)=O)cc2)c(C(C)C)c1', 'hCA I (Homo sapiens)', 11),
  ('Cc1cc(C)[n+](-c2ccc(S(N)(=O)=O)cc2)c(C)c1', 'hCA I (Homo sapiens)', 10),
  ('Cc1cc(-c2ccccc2)cc(-c2ccccc2)[n+]1-c1ccc(S(N)(=O)=O)cc1', 'hCA I (Homo sapiens)', 40),
  ('Cc1cc(-c2ccccc2)cc(C)[n+]1-c1ccc(S(N)(=O)=O)cc1', 'hCA I (Homo sapiens)', 7),
  ('NS(=O)(=O)c1ccc(C[n+]2c(-c3ccccc3)cc(-c3ccccc3)cc2-c2ccccc2)cc1', 'hCA I (Homo sapiens)', 280),
  ('Cc1cc(C)[n+](-c2ccc(S(N)(=O)=O)cc2)c(C)c1C', 'hCA I (Homo sapiens)', 5),
  ('CC(C)(C)c1cc(-c2ccccc2)cc(-c2ccccc2)[n+]1Cc1ccc(S(N)(=O)=O)cc1', 'hCA I (Homo sapiens)', 110),
  ('CCCc1cc(-c2ccccc2)cc(-c2ccccc2)[n+]1CCc1ccc(S(N)(=O)=O)cc1', 'hCA I (Homo sapiens)', 112);

---

- System under test: bCA IV (Bos taurus, UniProt Q95323)
- Construct: CA IV was isolated from bovine lung microsomes as described by Maren et al; from tissue; host or cells: bovine lung microsomes
- Sequence (Q95323 19-284): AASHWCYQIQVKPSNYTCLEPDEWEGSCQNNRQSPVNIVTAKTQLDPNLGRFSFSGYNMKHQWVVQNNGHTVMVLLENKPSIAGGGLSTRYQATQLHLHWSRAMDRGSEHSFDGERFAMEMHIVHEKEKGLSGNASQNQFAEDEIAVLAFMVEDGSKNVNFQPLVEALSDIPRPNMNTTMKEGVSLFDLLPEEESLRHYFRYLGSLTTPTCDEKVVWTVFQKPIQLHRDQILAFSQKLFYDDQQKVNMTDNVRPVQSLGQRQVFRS
- Experiment notes: CA esterase activity assay, isozyme bCA IV
- Assay type: biochemical, bovine
- Condition context: Table 2; from bovine lung microsomes; read-out: KI bCA IV
pKi: −log10 of the molar value.
Catalogue of molecules with associated pKi
Parameter measured: pKi

INSERT INTO assay_data (molecule, test_result) VALUES
  ('CCCc1cc(-c2ccccc2)cc(CCC)[n+]1-c1ccc(S(N)(=O)=O)cc1 [Compound 30]', 6.71),
  ('Cc1cc(-c2ccccc2)cc(C)[n+]1-c1ccc(S(N)(=O)=O)cc1 [Compound 28]', 6.68),
  ('CCCc1cc(-c2ccccc2)cc(-c2ccccc2)[n+]1-c1ccc(S(N)(=O)=O)cc1 [Compound 34]', 5.83),
  ('NS(=O)(=O)c1ccc(-[n+]2c(-c3ccccc3)cc(-c3ccccc3)cc2-c2ccccc2)cc1 [Compound 37]', 5.60);
